- experimental system: T1, KDM5B-PHD1-L309A (Homo sapiens)
- T1 chain: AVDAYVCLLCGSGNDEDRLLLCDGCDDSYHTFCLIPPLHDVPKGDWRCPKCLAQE
- assay overview: ITC
endpoint label: Kd (µM)

- binder: "ARTKQTARKS (histone H3 N-terminal tail, residues 1-10; also called H3K4me0; H3K4me0 peptide; source: synthetic peptide, bought: GL Biochem Ltd. (Shanghai, China)) [unmodified H3K4 peptide (residues 1-10)]"
  endpoint label: "Kd"
  unit of measurement: "µM"
  reported value: 8.3
